Molecular target: STAT5b (Homo sapiens, UniProt P51692)
Sequence (P51692 1-787): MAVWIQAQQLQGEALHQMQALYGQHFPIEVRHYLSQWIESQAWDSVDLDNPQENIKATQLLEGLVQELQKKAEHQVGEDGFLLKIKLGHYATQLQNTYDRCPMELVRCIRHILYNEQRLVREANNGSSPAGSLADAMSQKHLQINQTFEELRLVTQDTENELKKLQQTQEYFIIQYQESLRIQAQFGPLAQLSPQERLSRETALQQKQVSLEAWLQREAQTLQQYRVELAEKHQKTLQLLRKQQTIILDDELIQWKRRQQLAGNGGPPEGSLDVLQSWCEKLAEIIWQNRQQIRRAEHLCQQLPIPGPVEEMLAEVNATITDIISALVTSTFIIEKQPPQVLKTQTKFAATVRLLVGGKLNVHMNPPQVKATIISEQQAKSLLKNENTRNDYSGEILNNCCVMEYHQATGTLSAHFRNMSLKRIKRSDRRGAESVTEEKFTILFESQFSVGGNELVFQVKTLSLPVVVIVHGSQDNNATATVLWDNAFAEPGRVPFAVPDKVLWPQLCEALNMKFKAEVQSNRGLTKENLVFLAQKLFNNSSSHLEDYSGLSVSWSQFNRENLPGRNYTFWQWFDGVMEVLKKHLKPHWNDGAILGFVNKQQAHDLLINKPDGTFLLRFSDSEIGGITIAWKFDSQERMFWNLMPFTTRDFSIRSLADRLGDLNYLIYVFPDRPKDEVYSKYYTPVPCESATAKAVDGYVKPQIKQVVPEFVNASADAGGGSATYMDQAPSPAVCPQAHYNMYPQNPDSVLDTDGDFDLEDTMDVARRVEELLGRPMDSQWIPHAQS
Test: Fluorescence polarization (FP) binding assay, STAT5b
Conditions: FP assay; Ki calculated from IC50 (n=3; 6 a n=2); read-out: STAT5b Ki
experimental endpoint: Ki (µM)
Field: numeric (µM). Do not append units.

Answer with reported Ki of COc1cc(-c2cc(-c3cc(F)c(F)c(F)c3)cc(C(F)P(=O)(O)O)c2)cc(OC)c1OC (stereo not shown)
24.9

From: paper PMC9303812
